Ref: the supplement of paper PMC10567573

B1: PLAGL1 (parent)
chain: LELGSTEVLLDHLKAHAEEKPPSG

Variants of: B1
METHOD NOTES: protein stability index of a GFP-peptide fusion (GPS, HEK-293T) (PSI 1-6); higher = more stable;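 further: lentivirally expressed fusions sorted by FACS into six bins by GFP to DsRed ratio, PSI derived from sequencing read proportions per bin multiplied by bin number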
TEST PARAMETERS: c terminus: a fixed tail appended
Recorded protein stability index, one value per entry.
Could you keep your reply to the number by itself?

INSERT INTO results (sequence_record, quantitative_readout) VALUES
  ('LELGSTEVLIDHLKAHAEEKPPSG', 4.07),
  ('LELGSTEVLLDHLKAHAEEWPPSG', 4.06),
  ('LELGSTEVLLDHLKAHAENKPPSG', 4.03);

Continue with the next variant.
Req: Recorded protein stability index for LELGSTEVLLDHLKAHAEEMPPSG , please?
Resp: 4.01
